- Experimental system: T1, EsCas13d, nuclease-dead (Eubacterium siraeum, UniProt B0MS50, R295A;H300A;R849A;H854A)
- T1 sequence: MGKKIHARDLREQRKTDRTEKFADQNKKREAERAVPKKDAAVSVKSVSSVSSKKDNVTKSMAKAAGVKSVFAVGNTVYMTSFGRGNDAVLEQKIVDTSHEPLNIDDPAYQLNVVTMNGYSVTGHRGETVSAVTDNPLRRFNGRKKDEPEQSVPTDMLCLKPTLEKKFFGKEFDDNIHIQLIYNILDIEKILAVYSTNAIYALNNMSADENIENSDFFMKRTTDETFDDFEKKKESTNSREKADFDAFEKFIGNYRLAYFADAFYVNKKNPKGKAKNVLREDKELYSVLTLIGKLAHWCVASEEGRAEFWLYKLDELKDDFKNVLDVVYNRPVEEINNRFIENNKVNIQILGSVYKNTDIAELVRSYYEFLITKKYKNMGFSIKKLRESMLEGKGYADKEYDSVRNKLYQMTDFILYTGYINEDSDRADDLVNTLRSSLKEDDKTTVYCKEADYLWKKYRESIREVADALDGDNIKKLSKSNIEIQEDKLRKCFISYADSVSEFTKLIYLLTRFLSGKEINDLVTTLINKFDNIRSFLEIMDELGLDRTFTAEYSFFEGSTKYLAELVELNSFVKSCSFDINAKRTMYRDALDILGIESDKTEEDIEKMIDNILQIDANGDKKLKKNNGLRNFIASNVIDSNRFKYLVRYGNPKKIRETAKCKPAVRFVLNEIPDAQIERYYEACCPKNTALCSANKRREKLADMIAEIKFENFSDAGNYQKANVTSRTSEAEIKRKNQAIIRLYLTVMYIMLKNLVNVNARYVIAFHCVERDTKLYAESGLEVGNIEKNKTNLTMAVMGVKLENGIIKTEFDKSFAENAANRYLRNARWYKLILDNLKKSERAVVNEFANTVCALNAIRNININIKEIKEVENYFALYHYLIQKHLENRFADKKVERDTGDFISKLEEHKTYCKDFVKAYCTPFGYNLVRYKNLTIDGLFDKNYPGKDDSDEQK
- Method summary: crRNA (strand 1, pre-loaded); Mg2+; 40 mM Tris-HCl pH 7.5, 150 mM NaCl, 6 mM MgCl2, 1 mM DTT, 0.1% Tween-20, 0.2 mg/ml BSA; 25 C; 10 min per concentration, then washed
- Test conditions: tags: His6-TwinStrep-SUMO cleaved; N-terminal SNAP kept (SNAP-Surface 488); label: 3' end held by stalled T7 RNA polymerase
Measured metric: Kd (nM)
One number for each entry, in nM.

Binder	Units	Quantitative result
target 2 MT 5'PFS CAC 3'PFS UAC (mixed) RNA 1: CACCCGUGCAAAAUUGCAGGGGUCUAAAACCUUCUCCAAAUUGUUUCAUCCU RNA 2: GGGAAUGGAUCCACAUCUACGAAUUCCACAGGAUGAAACAAUUUGGAGAAGUACAGAUCGGAAGAGCACACGU	nM	1.66

Continue with the binder presented below.
// lookup Kd for target 1 U11C,G13A (mixed) RNA 1: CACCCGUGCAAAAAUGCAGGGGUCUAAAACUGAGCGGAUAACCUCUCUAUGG RNA 2: GGGAAUGGAUCCACAUCUACGAAUUCGUACCAUAGAGAAGCUAUCCGCUCACCGAGAUCGGAAGAGCACACGU 8.7
